- TEST DETAILS: LD50 determination, i.v. (Karber and Behrens)
- STATED CONDITIONS: mouse, in vivo, iv
READOUT TYPE: LD50 (mg/kg)
The figure you give is taken to be in mg/kg; do not add the unit.

Look up LD50 of CCN(CC)CCNC(=O)c1ccc(I)cc1 [Derivative A, N-(2-diethylaminoethyl) 4-iodo benzamide] and report it.
90

###

- TEST DETAILS: Tissue distribution in Swiss nu/nu SSCUP mice bearing Dau
- Assay type: in vivo, human
- STATED CONDITIONS: mouse, stomach, iv, 3 umol/animal; 24 h; read-out: stomach % ID/g
Assign tissue uptake at 24 h to each entry below.
The figure you give is taken to be in %ID/g; do not add the unit.

Look up tissue uptake at 24 h of CCNCCNC(=O)c1ccc(I)cc1 [Derivative B, N-(2-ethylaminoethyl) 4-iodo benzamide] and report it.
0.02

Look up tissue uptake at 24 h of CCN(CC)CCNC(=O)c1ccc(I)cc1 [Derivative A, N-(2-diethylaminoethyl) 4-iodo benzamide] and report it.
0.03

###

- TEST DETAILS: Tissue distribution in Swiss nu/nu SSCUP mice bearing Beu
- Assay type: in vivo, human
- STATED CONDITIONS: mouse, kidney, iv, 3 umol/animal; 8 h; read-out: kidney % ID/g
READOUT TYPE: tissue uptake at 8 h (%ID/g)
The figure you give is taken to be in %ID/g; do not add the unit.

Look up tissue uptake at 8 h of CCN(CC)CCNC(=O)c1ccc(I)cc1 [Derivative A, N-(2-diethylaminoethyl) 4-iodo benzamide] and report it.
0.28

###

Assign tissue uptake at 1 h to each entry below.
- TEST DETAILS: Tissue distribution in Swiss nu/nu SSCUP mice bearing Dau
- Format: in vivo, human
- STATED CONDITIONS: mouse, eye, iv, 3 umol/animal, 1 h; read-out: eye % ID/g
The figure you give is taken to be in %ID/g; do not add the unit.

Look up tissue uptake at 1 h of CCN(CC)CCNC(=O)c1ccc(I)cc1 [Derivative A, N-(2-diethylaminoethyl) 4-iodo benzamide] and report it.
0.68

Look up tissue uptake at 1 h of CCNCCNC(=O)c1ccc(I)cc1 [Derivative B, N-(2-ethylaminoethyl) 4-iodo benzamide] and report it.
0.51

###

- TEST DETAILS: Tissue distribution in C57 BL6 mice bearing B16
- Assay type: in vivo, mouse
- STATED CONDITIONS: mouse, lung, iv, 3 umol/animal, 2 h; read-out: lungs % ID/g
Assign tissue uptake at 2 h to each entry below.
The number alone won't do; follow it with the unit.

Look up tissue uptake at 2 h of CCN(CC)CCNC(=O)c1ccc(I)cc1 [Derivative A, N-(2-diethylaminoethyl) 4-iodo benzamide] and report it.
6.12 %ID/g

Look up tissue uptake at 2 h of CCNCCNC(=O)c1ccc(I)cc1 [Derivative B, N-(2-ethylaminoethyl) 4-iodo benzamide] and report it.
8 %ID/g

###

- TEST DETAILS: Tissue distribution in C57 BL6 mice bearing B16
- Format: in vivo, mouse
- STATED CONDITIONS: mouse, pancreas, iv, 3 umol/animal; 12 h; read-out: pancreas % ID/g
READOUT TYPE: tissue uptake at 12 h (%ID/g)
The figure you give is taken to be in %ID/g; do not add the unit.

Look up tissue uptake at 12 h of CCN(CC)CCNC(=O)c1ccc(I)cc1 [Derivative A, N-(2-diethylaminoethyl) 4-iodo benzamide] and report it.
0.13

###

- TEST DETAILS: Tissue distribution in C57 BL6 mice bearing B16
- Type: in vivo, mouse
- STATED CONDITIONS: mouse, stomach, iv, 3 umol/animal; 6 h; read-out: stomach % ID/g
READOUT TYPE: tissue uptake at 6 h (%ID/g)
The figure you give is taken to be in %ID/g; do not add the unit.

Look up tissue uptake at 6 h of CCN(CC)CCNC(=O)c1ccc(I)cc1 [Derivative A, N-(2-diethylaminoethyl) 4-iodo benzamide] and report it.
1.14

###

- TEST DETAILS: Tissue distribution in C57 BL6 mice bearing B16
- Format: in vivo, mouse
- STATED CONDITIONS: mouse, plasma, iv, 3 umol/animal, 2 h; read-out: plasma % ID/g
Assign tissue uptake at 2 h to each entry below.

Look up tissue uptake at 2 h of CCN(CC)CCNC(=O)c1ccc(I)cc1 [Derivative A, N-(2-diethylaminoethyl) 4-iodo benzamide] and report it.
0.55 %ID/g

Look up tissue uptake at 2 h of CCNCCNC(=O)c1ccc(I)cc1 [Derivative B, N-(2-ethylaminoethyl) 4-iodo benzamide] and report it.
0.4 %ID/g

###

- TEST DETAILS: Tissue distribution in Swiss nu/nu SSCUP mice bearing Beu
- Format: in vivo, human
- STATED CONDITIONS: mouse, kidney, iv, 3 umol/animal, 2 h; read-out: kidney % ID/g
READOUT TYPE: tissue uptake at 2 h (%ID/g)
The figure you give is taken to be in %ID/g; do not add the unit.

Look up tissue uptake at 2 h of CCN(CC)CCNC(=O)c1ccc(I)cc1 [Derivative A, N-(2-diethylaminoethyl) 4-iodo benzamide] and report it.
5.9

###

- TEST DETAILS: Tissue distribution in Swiss nu/nu SSCUP mice bearing Dau
- Assay type: in vivo, human
- STATED CONDITIONS: mouse, stomach, iv, 3 umol/animal; 12 h; read-out: stomach % ID/g
READOUT TYPE: tissue uptake at 12 h (%ID/g)
The figure you give is taken to be in %ID/g; do not add the unit.

Look up tissue uptake at 12 h of CCN(CC)CCNC(=O)c1ccc(I)cc1 [Derivative A, N-(2-diethylaminoethyl) 4-iodo benzamide] and report it.
0.38

Look up tissue uptake at 12 h of CCNCCNC(=O)c1ccc(I)cc1 [Derivative B, N-(2-ethylaminoethyl) 4-iodo benzamide] and report it.
0.1

###

- TEST DETAILS: Tissue distribution in C57 BL6 mice bearing B16
- Type: in vivo, mouse
- STATED CONDITIONS: mouse, intestine, iv, 3 umol/animal; 2 h; read-out: intestine % ID/g
READOUT TYPE: tissue uptake at 2 h (%ID/g)
The figure you give is taken to be in %ID/g; do not add the unit.

Look up tissue uptake at 2 h of CCN(CC)CCNC(=O)c1ccc(I)cc1 [Derivative A, N-(2-diethylaminoethyl) 4-iodo benzamide] and report it.
3.94

###

- TEST DETAILS: Tissue distribution in C57 BL6 mice bearing B16
- Assay type: in vivo, mouse
- STATED CONDITIONS: mouse, pancreas, iv, 3 umol/animal; 1 h; read-out: pancreas % ID/g
READOUT TYPE: tissue uptake at 1 h (%ID/g)
The figure you give is taken to be in %ID/g; do not add the unit.

Look up tissue uptake at 1 h of CCN(CC)CCNC(=O)c1ccc(I)cc1 [Derivative A, N-(2-diethylaminoethyl) 4-iodo benzamide] and report it.
5.34

###

- TEST DETAILS: Tissue distribution in C57 BL6 mice bearing B16
- Type: in vivo, mouse
- STATED CONDITIONS: mouse, stomach, iv, 3 umol/animal; 12 h; read-out: stomach % ID/g
READOUT TYPE: tissue uptake at 12 h

Look up tissue uptake at 12 h of CCN(CC)CCNC(=O)c1ccc(I)cc1 [Derivative A, N-(2-diethylaminoethyl) 4-iodo benzamide] and report it.
0.19 %ID/g

###

- TEST DETAILS: Tissue distribution in Swiss nu/nu SSCUP mice bearing Beu
- Format: in vivo, human
- STATED CONDITIONS: mouse, eye, iv, 3 umol/animal; 8 h; read-out: eye % ID/g
READOUT TYPE: tissue uptake at 8 h (%ID/g)
The figure you give is taken to be in %ID/g; do not add the unit.

Look up tissue uptake at 8 h of CCN(CC)CCNC(=O)c1ccc(I)cc1 [Derivative A, N-(2-diethylaminoethyl) 4-iodo benzamide] and report it.
0.07

###

- TEST DETAILS: Tissue distribution in Swiss nu/nu SSCUP mice bearing Beu
- Format: in vivo, human
- STATED CONDITIONS: mouse, liver, iv, 3 umol/animal, 6 h; read-out: liver % ID/g
READOUT TYPE: tissue uptake at 6 h

Look up tissue uptake at 6 h of CCN(CC)CCNC(=O)c1ccc(I)cc1 [Derivative A, N-(2-diethylaminoethyl) 4-iodo benzamide] and report it.
0.94 %ID/g

###

Assign tissue uptake at 1 h to each entry below.
- TEST DETAILS: Tissue distribution in Swiss nu/nu SSCUP mice bearing Dau
- Assay type: in vivo, human
- STATED CONDITIONS: mouse, lungs, iv, 3 umol/animal; 1 h; read-out: lungs % ID/g
The figure you give is taken to be in %ID/g; do not add the unit.

Look up tissue uptake at 1 h of CCN(CC)CCNC(=O)c1ccc(I)cc1 [Derivative A, N-(2-diethylaminoethyl) 4-iodo benzamide] and report it.
6.88

Look up tissue uptake at 1 h of CCNCCNC(=O)c1ccc(I)cc1 [Derivative B, N-(2-ethylaminoethyl) 4-iodo benzamide] and report it.
5.35
